Catalogue of GI50 readings, one per entry.
Tested on: T47D
assayRemarks: NCI tumour cell line growth inhibition, 48 h
Active and inactive are the calls of the source. Cut-off read from the data, not from the text of the source: active = GI50 up to about 1.1 µM and inactive = higher.

compound: COc1cccc(-c2cc(O)c3cc(N(C)C)ccc3n2)c1
GI50: > 10 µM (inactive)

compound: S=C(Nc1cc(Cl)c(Cl)cc1Cl)SCc1ccccc1
GI50: 32.3 µM (inactive)

compound: O=S(=O)(NNc1ccccc1)c1ccccc1
GI50: 12.6 µM (inactive)

compound: O=C(Cn1c(=O)oc2ccc(C(=O)c3cccc(Cl)c3)cc21)c1ccccc1
GI50: 4.53 µM (inactive)

compound: COc1ccc(C2=Nn3c(nc4sc(C)c(C)c4c3=O)SC2)cc1
GI50: > 100 µM (inactive)

compound: COc1ccc(C2(CC(C)O)SCCCS2)cc1 (configuration not stated)
GI50: > 100 µM (inactive)

compound: CC(=O)O[C@@H]1C(C2CCCCC2)C=[N+]([O-])O[C@@H]1OC1CCCC1(c1ccccc1)c1ccccc1 (some centres not stated)
GI50: 2.45 µM (inactive)

compound: CCCCCC1=C2C(c3ccc(OC)cc3)=C(N)C(c3ccc(OC)cc3)=C3NC(=O)C(C=C1)C32 (configuration not stated)
GI50: 70.1 µM (inactive)

compound: COC1=CC2(C=CC1=O)CCNC1=C2C(=O)c2nc[nH]c2C1=O (configuration not stated)
GI50: > 100 µM (inactive)

compound: N#Cc1ccc(OCc2nc3cc(C(F)(F)F)ccc3nc2-c2ccccc2)cc1
GI50: > 100 µM (inactive)

compound: CN(C)c1ncnc2c1ncn2CCn1cnc2c(N(C)C)ncnc21
GI50: > 100 µM (inactive)

compound: CN1CCCC(OC(=O)c2cc3cc(CCl)ccc3oc2=O)C1 (configuration not stated)
GI50: 32.7 µM (inactive)

compound: Cc1cccc(NC(=O)/C=C/c2ccccc2)c1C
GI50: > 100 µM (inactive)

compound: CN(C(=O)c1ccc(Cl)s1)C(=S)N(C)C(=O)c1ccc(Cl)s1
GI50: > 10 µM (inactive)

compound: Cc1cccc(C2NC(=O)c3ccccc3N2)c1 (configuration not stated)
GI50: > 100 µM (inactive)

compound: C[C@@H]1OC(=O)C[C@H]2CC(=O)N(CCC3CN(C(=O)c4ccccc4)c4ccccc43)C[C@@H]21 (some centres not stated)
GI50: > 100 µM (inactive)

compound: CCOC(=O)/C=C\[C@H]1OC(C)(C)O[C@H]1[C@H](O)[C@H]1COC(C)(C)O1
GI50: 20.5 µM (inactive)

compound: Brc1ccc2c3c1[C@@H]1O[C@@H]1c1cccc(c1-3)[C@@H]1O[C@H]21
GI50: 15.4 µM (inactive)

compound: CCCOP(=O)(OCCC)OC(C(F)(F)F)C(F)(F)F
GI50: > 100 µM (inactive)

compound: CC1(C)CC(C2=NCCO2)CC(C)(C)N1
GI50: > 100 µM (inactive)

compound: Cc1ccc2c(c1C)CC1(Cc3c(ccc4c3CCC4)C1=O)C2=O (configuration not stated)
GI50: > 100 µM (inactive)

compound: C=C(C)C1CC=C(C)C(=O)C1 (configuration not stated)
GI50: > 100 µM (inactive)

###

Catalogue of GI50 readings, one per entry.
Tested on: Hs-578T
assayRemarks: NCI tumour cell line growth inhibition, 48 h
Calls of active or inactive are those of the source. No stated cut-off is given here; in the data, active = GI50 up to about 1.1 µM and inactive = higher.
measuredParameter: GI50

compound: O=C1CCC2(c3ccc(Cl)cc3)Nc3ccncc3N12 (stereo unspecified)
measuredParameter: GI50
endpointValue: > 10 µM (inactive)

compound: CC(=O)O[C@@H]1C(C2CCCCC2)C=[N+]([O-])O[C@@H]1OC1CCCC1(c1ccccc1)c1ccccc1 (stereo partly specified)
measuredParameter: GI50
endpointValue: 11 µM (inactive)

compound: N=c1ccn2c(n1)OC1C(OP(=O)(O)O)C(CO)OC12 (stereo unspecified)
measuredParameter: GI50
endpointValue: > 100 µM (inactive)

compound: O=C1c2c(ccc3c2CCCC3)CC12Cc1ccccc1C2
measuredParameter: GI50
endpointValue: 22.5 µM (inactive)

compound: Cn1c(=O)sc2cc(C(=S)N3CCOCC3)ccc21
measuredParameter: GI50
endpointValue: > 41 µM (inactive)

compound: COc1ccc(CNc2nc3ccccc3nc2C(=O)O)cc1OC
measuredParameter: GI50
endpointValue: > 100 µM (inactive)

compound: CC1(C)[C@@H]2C[C@H]1c1cnc(-c3ccccn3)cc1C2[C@@H]1c2cc(-c3ccccn3)ncc2[C@@H]2C[C@H]1C2(C)C (stereo partly specified)
measuredParameter: GI50
endpointValue: > 100 µM (inactive)

compound: CCOC(=O)c1nc2ccccc2nc1Nc1cc(OC)c(OC)c(OC)c1
measuredParameter: GI50
endpointValue: 92.9 µM (inactive)

compound: CSc1cc(N)ccc1/N=N/c1ccc(S(N)(=O)=O)cc1
measuredParameter: GI50
endpointValue: 23.5 µM (inactive)

compound: COc1cc(C(O)CCBr)c(OC)cc1C (stereo unspecified)
measuredParameter: GI50
endpointValue: 25.1 µM (inactive)

compound: COc1ccc(S(=O)(=O)N/N=C/C(=O)O)cc1
measuredParameter: GI50
endpointValue: 404 µM (inactive)

###

Tested on: KM12
assayRemarks: NCI tumour cell line growth inhibition, 48 h
The source made the active and inactive calls. Cut-off read from the data, not from the text of the source: active = GI50 up to about 1.1 µM and inactive = higher.

molecule: Cc1cccc(NC(=O)/C=C/c2ccccc2)c1C
GI50: > 100 µM (inactive)
//
molecule: CC1OC2/C=C\CC(O)C(C)(C)C3CCC(C)C4(O3)O[B-]35OC(C(=O)OC1C2)C1(OC(CCC1C)C(C)(C)C(O)C/C=C\C1CC(OC(=O)C4O3)C(C)O1)O5 (stereo not given)
GI50: 3.07 µM (inactive)
//
molecule: O=c1[nH]nc(-c2ccccc2)n1/N=C/c1c(O)ccc2ccccc12
GI50: 6.75 µM (inactive)
//
molecule: CCOCc1c(C)cc(C)c(C2C(C(=O)c3ccccc3)N3c4ccccc4C=CC3C2(C#N)C(=O)OCC)c1C (stereo not given)
GI50: 16.8 µM (inactive)
//
molecule: CC(=O)Nc1cc(/C=C\C(=O)N2CC(CCl)c3c2cc(N)c2ccccc32)n(C)n1 (stereo not given)
GI50: 0.0167 µM (active)
//
molecule: Cc1ccc(S(=O)(=O)n2cc(-c3cc(C(F)(F)F)ccn3)c3cc(Br)ccc32)cc1
GI50: 38.9 µM (inactive)
//
molecule: CCOc1ccccc1NC(=O)CCC(=O)NN
GI50: > 100 µM (inactive)
//
molecule: CN1N=C(c2ccncc2)OC1c1ccc(C(F)(F)F)cc1 (stereo not given)
GI50: > 100 µM (inactive)
//
molecule: O=c1[nH]n(Cc2ccccc2)c2ccc([N+](=O)[O-])cc12
GI50: 64.4 µM (inactive)
//
molecule: CN1Cc2cc(O)c(O)cc2C(O)C1 (stereo not given)
GI50: > 100 µM (inactive)

###

Test system: DMS-114
assayRemarks: NCI tumour cell line growth inhibition, 48 h
The source made the active and inactive calls. No stated cut-off is given here; in the data, active = GI50 up to about 1.1 µM and inactive = higher.
Classes used: active, inactive

compound: Ic1ncnc2c1ncn2C1CCCO1 (configuration not stated)
testedOn: DMS-114
group: inactive

compound: O=C(Nc1cc(Cl)ccc1Cl)c1cc2cccc(Br)c2oc1=O
testedOn: DMS-114
group: inactive

compound: O=C1CCC(=O)c2cc(Br)ccc2N1
testedOn: DMS-114
group: inactive

compound: O=P1(O)c2ccccc2Nc2cc(C(F)(F)F)ccc21
testedOn: DMS-114
group: inactive

compound: CC(C)=CCCC1(C)C=Cc2c(c(C)cc3c2[nH]c2cc(O)ccc23)O1 (configuration not stated)
testedOn: DMS-114
group: inactive

compound: CC(C)CCCCCCCCCCCCC(=O)NCC(=O)NC1C(C)OC(Nc2ncnc3c2ncn3C)C(O)C1O (configuration not stated)
testedOn: DMS-114
group: inactive

compound: CCOC(OC1=C(C#N)CCCC1)C(CC)[Se]c1ccccc1[N+](=O)[O-] (configuration not stated)
testedOn: DMS-114
group: inactive

compound: O=C(/C=C/c1ccccc1O)C(c1ccccc1)c1ccccc1
testedOn: DMS-114
group: inactive

compound: C[N+]1(C)C/C(=C/c2ccc(F)cc2)C(=O)/C(=C\c2ccc(F)cc2)C1
testedOn: DMS-114
group: inactive

compound: CCOC(=O)C(C)(C)Oc1ccc(/C=C/C(=O)c2ccc(Cl)cc2)cc1
testedOn: DMS-114
group: inactive

compound: CC1(n2nc(-c3ccccc3)n(-c3ccccc3)c2=O)CSC1
testedOn: DMS-114
group: inactive

compound: COc1ccc(S(=O)(=O)N/N=C(\C)CN2C(=O)c3ccccc3C2=O)cc1
testedOn: DMS-114
group: inactive

compound: C/C=C(\C)c1cc(=O)c2c(C)cc3c(c2o1)C(=O)c1c(O)c(C2CC(C)(N(C)C)C(O)C(C)O2)cc(C2CC(N(C)C)C(O)C(C)O2)c1C3=O (configuration not stated)
testedOn: DMS-114
group: inactive

compound: CN(C)CCC(/C=C/c1ccccc1)=N\Nc1c(F)c(F)c(F)c(F)c1F
testedOn: DMS-114
group: inactive

compound: C[P+](C)(C)c1ccccc1
testedOn: DMS-114
group: inactive

compound: CC(=O)Nc1ccc(/C=C/C(=O)c2sc(-c3cccnc3)nc2C)cc1
testedOn: DMS-114
group: inactive

compound: CN1CCN(c2ccc3[nH]c(-c4ccc5[nH]c(-c6ccc(O)cc6)nc5c4)nc3c2)CC1
testedOn: DMS-114
group: inactive

compound: CN1OC(=O)N(C)C1c1ccccc1 (configuration not stated)
testedOn: DMS-114
group: inactive

compound: CSc1cccc(-n2c3nc(=O)n(C)c(=O)c-3nc3ccccc32)c1
testedOn: DMS-114
group: inactive

compound: CN(C)C1=NC2=S(SC(Nc3ccccc3)=N2)S1 (configuration not stated)
testedOn: DMS-114
group: inactive

compound: Clc1ccc2c(Cl)nc(-c3ccccc3)nc2c1
testedOn: DMS-114
group: inactive

compound: OC1OC2COC(c3ccccc3)OC2C(O)C1O (configuration not stated)
testedOn: DMS-114
group: inactive

compound: COc1ccc(Br)c(C(=O)N2CCc3ccccc32)c1N
testedOn: DMS-114
group: inactive

compound: CCC1(c2ccc(N)cc2)CCC(=O)NC1=O (configuration not stated) [AMINOGLUTETHIMIDE]
testedOn: DMS-114
group: inactive

compound: CC#CCC1CCC(OCC)=CC1=O (configuration not stated)
testedOn: DMS-114
group: inactive

compound: CC(C)=CC(=O)OC1C2C(C)C(=O)OC2C(O)C(C)C2C=CC(=O)C21C (configuration not stated)
testedOn: DMS-114
group: inactive

compound: COc1ccc(/C=C/C(=N\NC(=O)c2ccccc2)c2sc(Nc3ccc([N+](=O)[O-])cc3)nc2C)cc1OC
testedOn: DMS-114
group: inactive

compound: Cc1ccc(S(=O)(=O)N/N=C(\c2nc3ccc(Cl)cc3[nH]c2=O)C(O)c2ccco2)cc1 (configuration not stated)
testedOn: DMS-114
group: inactive

compound: N#CCCN(c1ccc(/C=C2\N=C(Cc3ccccc3)OC2=O)cc1)S(=O)(=O)c1ccccc1
testedOn: DMS-114
group: inactive

compound: CS/C(=N\c1ccccc1)N(c1ccccc1)c1nc(=[N+](C)C)ss1.[O-][Cl+3]([O-])([O-])[O-]
testedOn: DMS-114
group: active

compound: Cc1cc(Cl)ccc1NC(=O)C(=O)Cc1nc2ccc(C(=O)c3ccccc3)cc2nc1O
testedOn: DMS-114
group: inactive

compound: CC1CCC2c3c([nH]c4ccccc34)C3C(=O)N(c4ccccc4)C(=O)C3C2C1 (configuration not stated)
testedOn: DMS-114
group: inactive
